read-out: Insulin-like growth factor-binding protein 1 (IGFBP1), IGFBP1 (gene 3484); experiment: LTEA_HepaRG_IGFBP1: Life Technologies and Expression Analysis (LTEA) Assay for Insulin-like growth factor-binding protein 1 (IGFBP1) using HepaRG (AID 2283508); settings: mRNA level, 48 h; actives raise or lower the signal
The source made the active and inactive calls. Rule for the calls: active = hit-call score of the fitted dose curve at least 0.9, where 1 is the maximum; inactive = score below 0.9.
Possible outcomes: active, inactive

[[record]]
compound = "CCc1cnc(C2=NC(C)(C(C)C)C(=O)N2)c(C(=O)O)c1 (centres undefined)"
label_class = "inactive"

[[record]]
compound = "COP(=O)(NC(C)=O)SC (centres undefined)"
label_class = "inactive"

[[record]]
compound = "CCOP(=S)(OCC)Oc1cc(C)nc(C(C)C)n1"
label_class = "active"

[[record]]
compound = "CC(C)[C@H](C(=O)O[C@H](C#N)c1cccc(Oc2ccccc2)c1)c1ccc(Cl)cc1"
label_class = "inactive"

[[record]]
compound = "O=c1ccc(=O)[nH][nH]1"
label_class = "inactive"

[[record]]
compound = "S=C1NCCN1"
label_class = "inactive"

[[record]]
compound = "CCOP(=S)(Oc1cnc(C(C)(C)C)nc1)OC(C)C (centres undefined)"
label_class = "inactive"

[[record]]
compound = "CC(C)=CC1C(C(=O)OCN2C(=O)C3=C(CCCC3)C2=O)C1(C)C (centres undefined)"
label_class = "inactive"

[[record]]
compound = "CSc1nc(NC(C)C)nc(NC(C)C)n1"
label_class = "inactive"

